# measured target: Wee1 kinase (Homo sapiens)
# experiment notes: Wee1 kinase inhibitory effect (Pharmacological Test 1)
# applied conditions: GST-tagged Wee1 kinase, Poly(Lys, Tyr) substrate, 10 μM ATP, 30° C. for 30 minutes
pIC50: −log10 of the molar value.
quantity name: pIC50

Recorded pIC50, per entry:
I am curious: what pIC50 value has been reported for CN1CCc2ccc(Nc3ncc4c(=O)n5c(nc4n3)c3ccccc3n5-c3ccccn3)cc2C1 [Example 44] ?
8.41

I am curious: what pIC50 value has been reported for CN(C)CCN1CCc2cc(Nc3ncc4c(=O)n5c(nc4n3)c3ccccc3n5-c3nccs3)ccc21 [Example 144] ?
7.82

I am curious: what pIC50 value has been reported for CN1CCc2ccc(Nc3ncc4c(=O)n5c(nc4n3)c3ccccc3n5-c3nccs3)cc2C1 [Example 137] ?
8.21

I am curious: what pIC50 value has been reported for CN1CCc2cc(Nc3ncc4c(=O)n5c(nc4n3)c3ccccc3n5-c3nccs3)ccc2C1 [Example 136] ?
8.28

I am curious: what pIC50 value has been reported for CN1CCc2ccc(Nc3ncc4c(=O)n5c(nc4n3)c3ccccc3n5-c3ncccn3)cc2C1 [Example 101] ?
8.42

A. CN1CCc2cc(Nc3ncc4c(=O)n5c(nc4n3)c3ccccc3n5-c3ccccn3)ccc2C1 [Example 43]
B. Cc1cc(Nc2ncc3c(=O)n4c(nc3n2)c2ccccc2n4-c2ncccn2)ccc1N1CCN(C)CC1 [Example 61]
C. Cc1cc(Nc2ncc3c(=O)n4c(nc3n2)c2ccccc2n4-c2ccccn2)ccc1N1CCN(C)CC1 [Example 21]
Rank entries according to their pIC50, from the largest number down. Field: ranking. Enter the labels in the order requested.
A, B, C
(A: 8.31, B: 7.92, C: 7.49)

====

# measured target: UniProt P30291
# experiment notes: Wee1 kinase inhibitory effect (Pharmacological Test 1)
# applied conditions: GST-tagged Wee1 kinase, Poly(Lys, Tyr) substrate, 10 μM ATP, 30° C. for 30 minutes
quantity name: IC50 (nM)

Recorded IC50, per entry:
I am curious: what IC50 value has been reported for CN1CCc2cc(Nc3ncc4c(=O)n5c(nc4n3)c3ccccc3n5-c3ncccn3)ccc2C1(C)C [Example 103] ?
6.8

I am curious: what IC50 value has been reported for CN1CCC(C)(c2ccc(Nc3ncc4c(=O)n5c(nc4n3)c3ccccc3n5-c3ncccn3)cc2)CC1 [Example 88] ?
26

I am curious: what IC50 value has been reported for CN(C)CCc1ccc(Nc2ncc3c(=O)n4c(nc3n2)c2ccccc2n4-c2ncccn2)cc1 [Example 92] ?
46

I am curious: what IC50 value has been reported for CN1CCN(c2ccc(Nc3ncc4c(=O)n5c(nc4n3)c3ccccc3n5-c3ccccn3)cc2)CC1 [Example 23] ?
30

I am curious: what IC50 value has been reported for CN(C)Cc1ccc(Nc2ncc3c(=O)n4c(nc3n2)c2ccccc2n4-c2ncccn2)cc1 [Example 91] ?
34

I. CN1CCN(c2ccc(Nc3ncc4c(=O)n5c(nc4n3)c3ccccc3n5-c3ncccn3)cc2)CC1 [Example 62]
II. CN1CCN(c2ccc(Nc3ncc4c(=O)n5c(nc4n3)c3ccccc3n5-c3ccoc3)cc2)CC1 [Example 147]
III. CN1CCN(c2ccc(Nc3ncc4c(=O)n5c(nc4n3)c3ccccc3n5-c3cscn3)cc2)CC1 [Example 146]
Rank entries according to their IC50, from the largest number down. Field: ranking. Enter the labels in the order requested.
I, III, II
(I: 38 nM, III: 13 nM, II: 5.8 nM)

====

# measured target: Wee1 kinase (Homo sapiens, UniProt P30291)
# Construct: made in house; host or cells: Sf9 insect cells (recombinant baculovirus)
# Sequence (P30291 whole entry): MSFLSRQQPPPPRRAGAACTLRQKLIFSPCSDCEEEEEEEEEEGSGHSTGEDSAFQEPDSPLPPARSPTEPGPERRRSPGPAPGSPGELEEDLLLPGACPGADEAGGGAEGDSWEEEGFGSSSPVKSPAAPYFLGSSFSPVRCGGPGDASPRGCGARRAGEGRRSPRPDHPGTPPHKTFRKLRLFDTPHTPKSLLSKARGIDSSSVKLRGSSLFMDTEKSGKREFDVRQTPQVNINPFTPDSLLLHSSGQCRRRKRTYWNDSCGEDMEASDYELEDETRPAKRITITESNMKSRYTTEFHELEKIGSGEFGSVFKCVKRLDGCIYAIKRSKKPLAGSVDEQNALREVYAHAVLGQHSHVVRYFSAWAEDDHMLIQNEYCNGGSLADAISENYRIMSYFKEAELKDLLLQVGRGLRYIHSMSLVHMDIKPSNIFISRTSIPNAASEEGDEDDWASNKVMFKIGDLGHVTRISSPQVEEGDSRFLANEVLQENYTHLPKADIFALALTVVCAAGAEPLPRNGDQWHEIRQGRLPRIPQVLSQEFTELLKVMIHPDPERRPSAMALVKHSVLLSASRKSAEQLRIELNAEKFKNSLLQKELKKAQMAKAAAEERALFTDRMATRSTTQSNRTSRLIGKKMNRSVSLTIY
# experiment notes: Wee1 kinase inhibitory effect (Pharmacological Test 1)
# Type: biochemical
# applied conditions: GST-tagged Wee1 kinase, Poly(Lys, Tyr) substrate, 10 μM ATP, 30° C. for 30 minutes
pIC50: −log10 of the molar value. Where a name gives a salt, the structure may show the parent alone.
quantity name: pIC50

Recorded pIC50, per entry:
I am curious: what pIC50 value has been reported for CN(C)CCN1CCOc2cc(Nc3ncc4c(=O)n5c(nc4n3)c3ccccc3n5-c3nccs3)ccc21 [Example 143] ?
7.82

I am curious: what pIC50 value has been reported for CN1CCN(c2ccc(Nc3ncc4c(=O)n5c(nc4n3)c3ccc(O)cc3n5-c3ccccn3)cc2)CC1 [Example 150, trifluoroacetate] ?
8.07

I am curious: what pIC50 value has been reported for CN(C)[C@H]1CCN(c2ccc(Nc3ncc4c(=O)n5c(nc4n3)c3ccccc3n5-c3ncccn3)cc2)C1 [Example 79] ?
7.62

I. CN1Cc2ccc(Nc3ncc4c(=O)n5c(nc4n3)c3ccccc3n5-c3ncccn3)cc2C1 [Example 102]
II. Cc1cc(Nc2ncc3c(=O)n4c(nc3n2)c2ccccc2n4-c2ncccn2)ccc1OCCN(C)C [Example 90]
Given I and given II , which shows the smaller recorded pIC50? // respond with label for picked entry
II

====

# measured target: Wee1 kinase (Homo sapiens, UniProt P30291)
# experiment notes: Wee1 kinase inhibitory effect (Pharmacological Test 1)
# applied conditions: GST-tagged Wee1 kinase, Poly(Lys, Tyr) substrate, 10 μM ATP, 30° C. for 30 minutes
quantity name: IC50 (nM)

P. Cc1cc(Nc2ncc3c(=O)n4c(nc3n2)c2ccccc2n4-c2ccsc2)ccc1N1CCN(C)CC1
Q. CN(C)CCCOc1ccc(Nc2ncc3c(=O)n4c(nc3n2)c2ccccc2n4-c2nccs2)cc1
R. CN1CCc2cc(Nc3ncc4c(=O)n5c(nc4n3)c3ccccc3n5-c3ncccn3)ccc2C1
// rank above by IC50: first = highest number Field: ranking. Enter the labels in the order requested.
Q, P, R
(Q: 23 nM, P: 13 nM, R: 5.1 nM)
